Sourced from paper PMC3441526

run-description: Pharmacokinetic study in mice
Assay type: in vivo, nude mice (nu/nu)
setup-conditions: female, nude (nu/nu), mouse; Heart; Nu/nu; IV 35 mg/kg; read-out: Tmax
readout: Tmax (h)
Could you give me the number in h? Just the number is fine.

I'd like to know its Tmax. The compound in question is COc1ccc(S(=O)(=O)N(Cc2ccc3c(c2)C=CC(C)(C)O3)c2ccccc2)cc1OC
4

----------
run-description: Pharmacokinetic study in mice
Type: in vivo, nude mice (nu/nu)
setup-conditions: female, nude (nu/nu), mouse; Kidneys; Nu/nu; IP 35 mg/kg
readout: half-life (h)
Report the value in h with no unit label.

May I ask what half-life has been recorded for COc1ccc(S(=O)(=O)N(Cc2ccc3c(c2)C=CC(C)(C)O3)c2ccccc2)cc1OC ?
22.4

----------
run-description: Pharmacokinetic study in mice
Assay type: in vivo, CD-1 mice
setup-conditions: female, mouse; Muscle; CD-1; IP 35 mg/kg; read-out: Tmax
Experimental: Female CD-1 and nude mice were administered 35 mg/kg body weight of KCN1 as either a single intravenous injection via a tail vein or via an intraperitoneal injection. […] The collection containers and cages were washed twice with 0.9% saline solution, and each urine collection and each wash was analyzed separately, then values were added together for each mouse to determine the total KCN1 present in urine during the collection period. […]
readout: Tmax (min)
API: value field is a number in min; no unit string.

Fill in the blank: the reported Tmax of COc1ccc(S(=O)(=O)N(Cc2ccc3c(c2)C=CC(C)(C)O3)c2ccccc2)cc1OC [KCN1] is ____.
10.2

----------
run-description: Pharmacokinetic study in mice
Assay type: in vivo, nude mice (nu/nu)
setup-conditions: female, nude (nu/nu), mouse; Brain; Nu/nu; IP 35 mg/kg; read-out: Tmax
readout: Tmax (h)
Please give a number only; it is taken to be in h.

Need Tmax of COc1ccc(S(=O)(=O)N(Cc2ccc3c(c2)C=CC(C)(C)O3)c2ccccc2)cc1OC [KCN1] , thanks.
1

----------
run-description: Pharmacokinetic study in mice
Assay type: in vivo, nude mice (nu/nu)
setup-conditions: female, nude (nu/nu), mouse; Plasma; Nu/nu; IP 35 mg/kg
readout: half-life (h)
Just the number please, in h, no unit attached.

Query: half-life; subject: COc1ccc(S(=O)(=O)N(Cc2ccc3c(c2)C=CC(C)(C)O3)c2ccccc2)cc1OC [KCN1]
2.65

----------
run-description: Pharmacokinetic study in mice
Format: in vivo, nude mice (nu/nu)
setup-conditions: female, nude (nu/nu), mouse; Spleen; Nu/nu; IV 35 mg/kg; read-out: Tmax
readout: Tmax (h)
Express the result in h but write the number alone.

Bench note: what Tmax did COc1ccc(S(=O)(=O)N(Cc2ccc3c(c2)C=CC(C)(C)O3)c2ccccc2)cc1OC [KCN1] show?
2

----------
run-description: Pharmacokinetic study in mice
Assay type: in vivo, CD-1 mice
setup-conditions: female, mouse; Lungs; CD-1; IV 35 mg/kg
readout: half-life (h)
Output spec: scalar in h, unitless text.

I would be grateful if you could share the reported half-life for COc1ccc(S(=O)(=O)N(Cc2ccc3c(c2)C=CC(C)(C)O3)c2ccccc2)cc1OC .
23.3

----------
run-description: Pharmacokinetic study in mice
Assay type: in vivo, nude mice (nu/nu)
setup-conditions: female, nude (nu/nu), mouse; Muscle; Nu/nu; IP 35 mg/kg
readout: half-life (min)
Supply the numeric figure in min, leaving out any unit text.

May I ask what half-life has been recorded for COc1ccc(S(=O)(=O)N(Cc2ccc3c(c2)C=CC(C)(C)O3)c2ccccc2)cc1OC [KCN1] ?
178
